# ASSAYED_TARGET: T1, TSAd SH2 domain, His-tagged (UniProt Q9NP31 95-186)
# T1 construct: T cell-specific adaptor protein (TSAd, SH2D2A), SH2 domain; In the popinF vector
# T1 sequence (Q9NP31 95-186): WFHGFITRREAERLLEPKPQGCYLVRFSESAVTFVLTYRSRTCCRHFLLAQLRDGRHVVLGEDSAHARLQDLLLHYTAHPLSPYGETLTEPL
# EXPERIMENT_NOTES: SPR; biotinylated short peptides immobilised at ~25 response units on streptavidin-coated CM5 chips, BIAcore 3000; SH2 domains injected at 10 μl/min at 37°C; equilibrium binding, 1:1 Langmuir
# CONDITION: both partners purified
Where no end group is shown, it is not given here. [ ]: non-standard residue; d: D form. The star is where a group is joined. Biotin = O=C1N[C@H]2[C@H](CS[C@H]2CCCCC(=O)*)N1; pY = N[C@@H](Cc1ccc(OP(=O)(O)O)cc1)C(=O)O
OBSERVATION_TYPE: pKd
Scale for pKd: -log10 of concentration given in mol/L; no unit attached.

Exercise: Fill blank: measured pKd of the binder Biotin-LLHSD[pY]MNMTP (CD28-derived peptide containing the YXN motif; also called phosphorylated CD28-derived peptide; source: synthetic peptide (Peptide Protein Research Ltd.)) [CD28 pYMNM peptide (biotin-LLHSDpYMNMTP)] is ____.
Key: 4.13
